Data provenance is ChEMBL document CHEMBL1140203.

# Assayed System: 5-hydroxytryptamine receptor 2C (Homo sapiens)
# Sequence (P28335 whole entry): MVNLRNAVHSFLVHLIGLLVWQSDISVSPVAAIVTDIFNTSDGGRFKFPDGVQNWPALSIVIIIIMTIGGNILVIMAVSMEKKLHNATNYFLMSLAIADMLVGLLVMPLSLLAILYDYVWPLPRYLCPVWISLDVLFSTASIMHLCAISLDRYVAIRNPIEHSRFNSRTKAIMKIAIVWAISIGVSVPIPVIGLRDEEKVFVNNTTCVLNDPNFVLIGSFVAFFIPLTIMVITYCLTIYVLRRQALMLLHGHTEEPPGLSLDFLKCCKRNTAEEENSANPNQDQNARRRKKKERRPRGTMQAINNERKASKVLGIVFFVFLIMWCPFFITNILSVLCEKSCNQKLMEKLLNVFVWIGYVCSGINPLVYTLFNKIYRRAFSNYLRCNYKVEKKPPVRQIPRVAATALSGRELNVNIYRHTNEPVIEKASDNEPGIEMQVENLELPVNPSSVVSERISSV
Property Measured: pIC50
Scale explanation: pIC50 corresponds to minus log10 of a concentration expressed in moles per litre.

# input Under 5-hydroxytryptamine receptor 2C (Homo sapiens): report pIC50 of Nc1nc2c(c(N3CCNCC3)n1)CCC1=C2[C@@H]2CCCC[C@@H]2O1 (relative stereo) .
# output 4.93

----------
# Method Notes: in vivo
# Test Settings: Sprague-Dawley, rat, ip, 10 mg/kg
Property Measured: Tmax (min)
Reply with just the number (in min).

# input Return reported Tmax. Input compound: Nc1nc2c(c(N3CCNCC3)n1)CCC1=C2[C@@H]2CCCC[C@@H]2O1 (relative stereo)
# output 15
